- tested on: K. pneumoniae LpxH (Klebsiella pneumoniae)
- Sequence (A6T5R0 1-240): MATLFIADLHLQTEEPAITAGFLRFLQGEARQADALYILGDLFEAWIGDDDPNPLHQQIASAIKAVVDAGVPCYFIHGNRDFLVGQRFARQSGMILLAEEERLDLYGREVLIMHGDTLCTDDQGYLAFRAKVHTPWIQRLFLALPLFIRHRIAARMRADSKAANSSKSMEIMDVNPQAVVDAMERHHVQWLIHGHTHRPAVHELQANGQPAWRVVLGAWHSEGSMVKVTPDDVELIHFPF
# pIC50 values compiled below
pIC50 field: float, defined as -log10 of concentration (mol/L).

1) CC(=O)N1CCc2cc(S(=O)(=O)N3CCN(c4nccc(C(F)(F)F)n4)CC3)ccc21; 7.00

The record that follows has no pIC50 shown yet.
pIC50 measured on CN(c1ccccc1C(=O)Nc1ccc(S(=O)(=O)N2CCN(c3cc(C(F)(F)F)cc(Cl)n3)CC2)cc1)S(C)(=O)=O = 9.89

###

Target protein (sequence): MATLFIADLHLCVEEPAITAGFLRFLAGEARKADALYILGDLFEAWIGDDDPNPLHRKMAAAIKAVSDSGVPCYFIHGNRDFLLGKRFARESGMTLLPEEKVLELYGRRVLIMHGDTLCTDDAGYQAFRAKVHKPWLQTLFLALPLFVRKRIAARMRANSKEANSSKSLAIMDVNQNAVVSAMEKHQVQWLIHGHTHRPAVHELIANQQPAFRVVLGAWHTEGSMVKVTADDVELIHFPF
parameter measured: pIC50
pIC50 field: float, defined as -log10 of concentration (mol/L).

pIC50 measured on CN(c1ccccc1C(=O)Nc1ccc(S(=O)(=O)N2CCN(c3cc(C(F)(F)F)cc(Cl)n3)CC2)cc1)S(C)(=O)=O [JH-LPH-107] = 9.89
